Where these numbers come from: patent US20110166121A1

Attribute: IC50
Target: Human P2Y12 receptor (Homo sapiens, UniProt Q9H244)
Construct: expressed in transfected cells; host or cells: HEK cells
Sequence (Q9H244 whole entry): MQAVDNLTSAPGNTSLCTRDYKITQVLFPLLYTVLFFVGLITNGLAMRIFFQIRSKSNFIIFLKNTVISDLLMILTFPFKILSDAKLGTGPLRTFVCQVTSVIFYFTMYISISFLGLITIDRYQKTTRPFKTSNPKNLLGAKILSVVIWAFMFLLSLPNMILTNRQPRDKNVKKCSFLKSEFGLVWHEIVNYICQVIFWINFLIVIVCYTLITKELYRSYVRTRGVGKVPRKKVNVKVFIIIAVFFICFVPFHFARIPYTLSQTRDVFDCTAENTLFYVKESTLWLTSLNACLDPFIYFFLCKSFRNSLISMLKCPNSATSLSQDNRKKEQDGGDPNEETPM
Experiment: Human P2Y12 receptor cell membrane binding assay with [3H] 2-Mes-ADP
Conditions: 1 nM [3H] 2-Mes-ADP, membranes of HEK cells expressing P2Y12 receptor; read-out: Binding activity (IC50)

COMPOUND	IC50 [µM]
CCCc1cc2c(N3CCn4c(nnc4C(F)(F)F)C3)nc(N3CC[C@H](NC(=O)CCO)C3)nc2s1	0.08
CCCc1cc2c(N3CCn4c(nnc4C(F)(F)F)C3)nc(N3CCCC(C(=O)OCOC(=O)C(C)(C)C)C3)nc2s1 (stereo not shown)	0.4
CCCc1cc2c(N3CCn4c(nnc4C(F)(F)F)C3)nc(N[C@@H]3CCNC3)nc2s1	0.32
CCCc1cc2c(N3CCn4c(nnc4C(F)(F)F)C3)nc(OCC(O)CO)nc2s1 (stereo not shown)	0.14
CCCc1cc2c(N3CCn4c(nnc4C(F)(F)F)C3)nc(-c3nnn[nH]3)nc2s1	1.6
CCCc1cc2c(N3CCn4c(nnc4C(F)(F)F)C3)nc(Oc3ccc(N4CCNCC4)cc3)nc2s1	2.33
CCCc1cc2c(N3CCn4c(nnc4C(F)(F)F)C3)nc(OCC(CO)CO)nc2s1	0.2
CCc1cc2c(N3CCn4ccnc4C3)nc(N3CCNC(=O)C3)nc2s1	7.64
CCCc1cc2c(N3CCn4c(nnc4C(F)(F)F)C3)nc(OCc3ccccc3)nc2s1	0.039
CCCc1cc2c(N3CCn4c(nnc4C(F)(F)C(F)(F)F)C3)nc(OCC(O)CO)nc2s1 (stereo not shown)	0.13
CC(C)Cc1cc2c(N3CCn4c(nnc4C(F)(F)F)C3)nc(N3CC[C@@H](O)C3)nc2s1	0.33
CCCc1cc2c(N3CCn4c(nnc4C(F)(F)F)C3)nc(N3CC[C@H](NC(=O)CCN)C3)nc2s1	0.67
CCCc1cc2c(N3CCn4c(nnc4C(F)(F)F)C3)nc(-n3ccc4ccccc43)nc2s1	0.36
CCCc1cc2c(N3CCn4c(nnc4C(F)(F)F)C3)nc(N3CCCC(N)C3)nc2s1 (stereo not shown)	0.167
CCCCc1cc2c(N3CCn4c(nnc4C(F)(F)F)C3)nc(N3CCNC(=O)C3)nc2s1	0.1
CCCc1cc2c(N3CCn4c(nnc4C(F)(F)F)C3)nc(NC3CCNC3)nc2s1 (stereo not shown)	0.47
